tested on: A549; test: Antiproliferative activity against human A549 assessed as growth inhibition after 48 hrs by SRB assay; type: functional; conditions: A549, 48 h
A collection of molecules and their measured GI50

| QUERY SMILES | TARGET | RESULT OPERATOR | GI50 [µM] |
| --- | --- | --- | --- |
| COc1cccc2c1C(=O)c1c(O)c3c(c(O)c1C2=O)C[C@@](O)(C(=O)CO)C[C@@H]3O[C@H]1C[C@H](N)[C@H](O)[C@H](C)O1 | A549 | = | 0.27 |
| COc1cc([C@H]2Oc3cc(-c4cc(=O)c5c(O)cc(O)cc5o4)ccc3O[C@@H]2CO)cc(OC)c1O | A549 | = | 20.3 |
| COc1ccc(-c2oc3c(OC)c(OC)ccc3c(=O)c2OC)cc1O | A549 | = | 2.7 |
| COc1cc(O)c(-c2oc3c(OC)c(OC)ccc3c(=O)c2OC)cc1O | A549 | > | 10 |
| COc1ccc2c(=O)cc(-c3cc(OC)c(OC)cc3O)oc2c1 | A549 | > | 10 |
| COc1ccc2c(c1O)COc1c-2oc2c(OC)c(OC)ccc2c1=O | A549 | > | 10 |

###

A collection of molecules and their measured GI50
test system: HT-29; experiment: Antiproliferative activity against human HT-29 assessed as growth inhibition after 48 hrs by SRB assay; type: functional; conditions: HT-29, 48 h
REPORTED METRIC: GI50 (µM)

| QUERY SMILES | UNIT NAME | RESULT OPERATOR | MEASURED VALUE |
| --- | --- | --- | --- |
| COc1cc(O)c(-c2oc3c(OC)c(OC)ccc3c(=O)c2OC)cc1O | µM | > | 10 |
| COc1ccc2c(c1O)COc1c-2oc2c(OC)c(OC)ccc2c1=O | µM | > | 10 |
| COc1ccc2c(=O)cc(-c3cc(OC)c(OC)cc3O)oc2c1 | µM | > | 10 |
| COc1cc([C@H]2Oc3cc(-c4cc(=O)c5c(O)cc(O)cc5o4)ccc3O[C@@H]2CO)cc(OC)c1O | µM | = | 4.1 |
| COc1ccc(-c2oc3c(OC)c(OC)ccc3c(=O)c2OC)cc1O | µM | = | 7.5 |
| COc1cccc2c1C(=O)c1c(O)c3c(c(O)c1C2=O)C[C@@](O)(C(=O)CO)C[C@@H]3O[C@H]1C[C@H](N)[C@H](O)[C@H](C)O1 | µM | = | 0.12 |
